test: solvent given as SMILES; conditions: in CC(C)CCO
solvation free energy, 298 K values for the compounds below.
Give the value in kcal/mol but do not write kcal/mol after it.

>  <COMPOUND>
Clc1c(Cl)c(Cl)c(Cl)c(Cl)c1Cl

>  <solvation free energy, 298 K [kcal/mol]>
-9.59

$$$$
>  <COMPOUND>
CCC

>  <solvation free energy, 298 K [kcal/mol]>
-1.33

$$$$
>  <COMPOUND>
CCN(CC)CC

>  <solvation free energy, 298 K [kcal/mol]>
-4.88

$$$$
>  <COMPOUND>
C(=Cc1ccccc1)c1ccccc1

>  <solvation free energy, 298 K [kcal/mol]>
-9.88

$$$$
>  <COMPOUND>
O=C(O)c1ccccc1

>  <solvation free energy, 298 K [kcal/mol]>
-9.41

$$$$

Could you share which solvation free energy, 298 K value was measured for COc1ccc2cc(C(C)C(=O)O)ccc2c1 (stereo unspecified) ?
-16.4

Try CCC1CCCCC1 next.
-4.74

Subsequent entry: Cc1cccc(C(=O)O)c1
-9.93

----------
Below: a set of entries, each annotated with reported solvation free energy, 298 K.
assay: solvent given as SMILES; settings: in O
Just the number in kcal/mol, nothing appended.

Please review the following examples before continuing.
>  <MOLECULE>
CNCc1ccc(C)cc1

>  <solvation free energy, 298 K (kcal/mol)>
-5.95

$$$$
>  <MOLECULE>
O=C(O)CCCc1ccccc1

>  <solvation free energy, 298 K (kcal/mol)>
-9.07

$$$$
>  <MOLECULE>
Brc1cc(Br)cc(Br)c1

>  <solvation free energy, 298 K (kcal/mol)>
-1.91

$$$$
>  <MOLECULE>
c1ccc2c(c1)CCC2

>  <solvation free energy, 298 K (kcal/mol)>
-1.42

$$$$
>  <MOLECULE>
FC(C(F)(F)F)C(F)(F)F

>  <solvation free energy, 298 K (kcal/mol)>
2.01

$$$$

Which solvation free energy, 298 K value is on record for Brc1cccc(Br)c1 ?
-1.99

Further, for CCCCC=O ?
-3.01

What do we get for O=[N+]([O-])c1ccc(Cl)cc1 ?
-5.05

Similarly, CCCC(=O)CC(=O)CC ?
-4.35

Could you do the same for CCCC(=O)c1c(C)[nH]n(-c2ccccc2)c1=O , please?
-9.51

----------
assay: solvent given as SMILES; conditions: in NC=O
QUANTITY_NAME: solvation free energy, 298 K (kcal/mol)
Note: unit kcal/mol is implicit; provide only the numeric part.

>  <STRUCTURE_SMILES>
CCCCC=O

>  <UNIT_TAG>
kcal/mol

>  <solvation free energy, 298 K>
-3.77

$$$$
>  <STRUCTURE_SMILES>
O=C(O)c1ccccc1O

>  <UNIT_TAG>
kcal/mol

>  <solvation free energy, 298 K>
-9.97

$$$$
>  <STRUCTURE_SMILES>
ClC(Cl)Cl

>  <UNIT_TAG>
kcal/mol

>  <solvation free energy, 298 K>
-2.91

$$$$
>  <STRUCTURE_SMILES>
CCCC

>  <UNIT_TAG>
kcal/mol

>  <solvation free energy, 298 K>
-0.12

$$$$
>  <STRUCTURE_SMILES>
CCCCCCCOC(C)=O

>  <UNIT_TAG>
kcal/mol

>  <solvation free energy, 298 K>
-4.84

$$$$

Which value of solvation free energy, 298 K has been reported for CC=CCCC in the records?
-1.06

What do you have for C=CCCCCCC ?
-1.58

Moving on to C=CCCCC
-0.91

What would you report for CCCCCCOC(C)=O ?
-4.6

Next up: CC1CCCCC1
-1.42

Moving on to the next compound: Cc1cccc(C)c1
-3.29

----------
Measured solvation free energy, 298 K of individual entries
test: solvent given as SMILES; conditions: in CCCO
Put down the number, then write its unit next to it.

// known answers, use as guide
>  <STRUCTURE_SMILES>
CC(C)O

>  <solvation free energy, 298 K>
-5.07 kcal/mol

$$$$
>  <STRUCTURE_SMILES>
O=C1c2ccccc2-c2ccccc21

>  <solvation free energy, 298 K>
-10.6 kcal/mol

$$$$
>  <STRUCTURE_SMILES>
NC(N)=S

>  <solvation free energy, 298 K>
-10.2 kcal/mol

$$$$
>  <STRUCTURE_SMILES>
CC(C)C

>  <solvation free energy, 298 K>
-1.77 kcal/mol

$$$$
>  <STRUCTURE_SMILES>
c1ccc2c(c1)Cc1ccccc1-2

>  <solvation free energy, 298 K>
-9.09 kcal/mol

$$$$

Item under review: CCN(CC)CC . Reported solvation free energy, 298 K?
-4.82 kcal/mol

Would you kindly repeat that for FCCF ?
-3.64 kcal/mol

And what about the compound O=C(O)C=CC(=O)O ?
-10.6 kcal/mol

----------
test: solvent given as SMILES; conditions: in C=CCCCCCCC=C
QUANTITY_NAME: solvation free energy, 298 K (kcal/mol)
# value in kcal/mol; strip the unit string

>  <MOLECULE>
O=C(O)C(O)c1ccccc1 (stereo not given)

>  <solvation free energy, 298 K, kcal/mol>
-9.41

$$$$
>  <MOLECULE>
NCCc1ccc(O)cc1

>  <solvation free energy, 298 K, kcal/mol>
-10

$$$$
>  <MOLECULE>
[HH]

>  <solvation free energy, 298 K, kcal/mol>
1.6

$$$$

Could you share which solvation free energy, 298 K value was measured for O ?
-1.19

Again, but for CC(=O)O
-2.71

----------
experiment: solvent given as SMILES; settings: in COC(C)=O
Output met for solvation free energy, 298 K not less than -5 kcal/mol; output not met otherwise.

# check: solvation free energy, 298 K of CCCC is greater than or equal to -5 kcal/mol
met

Next compound up: O=C(O)c1ccccc1O
not met

Follow-up entry: C(=Cc1ccccc1)c1ccccc1
not met

What do you have for CCC1CO1 (centres undefined) ?
met

Now consider Clc1c(Cl)c(Cl)c(Cl)c(Cl)c1Cl .
not met

----------
test: solvent given as SMILES; conditions: in CC#N
QUANTITY_NAME: solvation free energy, 298 K
Answer format: number, then unit.

>  <STRUCTURE_SMILES>
CC1CCCCC1

>  <solvation free energy, 298 K>
-3.28 kcal/mol

$$$$
>  <STRUCTURE_SMILES>
C=CC=C

>  <solvation free energy, 298 K>
-2.15 kcal/mol

$$$$

# ---- query compound ----
I have this compound here, CCCc1ccccc1 , and I need its recorded solvation free energy, 298 K.
-5.61 kcal/mol

----------
test: solvent given as SMILES; details: in CC(C)(C)O
Tag: satisfied if measured solvation free energy, 298 K is not below -10 kcal/mol, not satisfied if it is.

Example results:
>  <COMPOUND>
Cc1cccnc1

>  <ASSIGNED_CLASS>
satisfied

$$$$
>  <COMPOUND>
CCCCBr

>  <ASSIGNED_CLASS>
satisfied

$$$$
>  <COMPOUND>
CCCCCl

>  <ASSIGNED_CLASS>
satisfied

$$$$
>  <COMPOUND>
COc1ccccc1C(=O)O

>  <ASSIGNED_CLASS>
not satisfied

$$$$

Check if solvation free energy, 298 K >= -10 kcal/mol (inclusive). Item: O=C1c2ccccc2-c2ccccc21
not satisfied

Now this one: CCC
satisfied

Now this one: O=C(c1ccccc1)C(O)c1ccccc1 (stereo unspecified)
not satisfied

Moving on to Cc1ccccn1
satisfied

Another compound to look at: c1ccc2c(c1)ccc1ccccc12
satisfied

What about CCCCCCCCCCCCCCCCCCCCCCCCCCCC ?
not satisfied

Next compound up: Cc1c(C(=O)O)cc([N+](=O)[O-])cc1[N+](=O)[O-]
not satisfied

And the next one, [HH] ?
satisfied

Next entry: C=CC=C
satisfied

Please do the same for C(=Cc1ccccc1)c1ccccc1 as well.
satisfied

Try O=C(O)c1ccc(O)cc1 next.
not satisfied

----------
assay: solvent given as SMILES; conditions: in CCCCOC(C)=O
solvation free energy, 298 K reference
Value expressed in kcal/mol; do not type the unit.

Some compounds with recorded solvation free energy, 298 K:
>  <STRUCTURE_SMILES>
O=C(O)c1ccccc1

>  <UNIT_TAG>
kcal/mol

>  <solvation free energy, 298 K>
-9.29

$$$$
>  <STRUCTURE_SMILES>
Cc1cccc(C(=O)O)c1

>  <UNIT_TAG>
kcal/mol

>  <solvation free energy, 298 K>
-9.69

$$$$
>  <STRUCTURE_SMILES>
CCC1CCCCC1

>  <UNIT_TAG>
kcal/mol

>  <solvation free energy, 298 K>
-4.99

$$$$
>  <STRUCTURE_SMILES>
Cc1cccc(C)c1

>  <UNIT_TAG>
kcal/mol

>  <solvation free energy, 298 K>
-6.06

$$$$
>  <STRUCTURE_SMILES>
O=C(O)c1ccccc1O

>  <UNIT_TAG>
kcal/mol

>  <solvation free energy, 298 K>
-10

$$$$
>  <STRUCTURE_SMILES>
CCCCCCCCCCCCCCCCCCCCCCCCCCCC

>  <UNIT_TAG>
kcal/mol

>  <solvation free energy, 298 K>
-17.9

$$$$
>  <STRUCTURE_SMILES>
OC1CCCCC1

>  <UNIT_TAG>
kcal/mol

>  <solvation free energy, 298 K>
-7.07

$$$$
>  <STRUCTURE_SMILES>
Nc1ccc([N+](=O)[O-])cc1

>  <UNIT_TAG>
kcal/mol

>  <solvation free energy, 298 K>
-12.7

$$$$

May I ask what solvation free energy, 298 K has been recorded for c1ccc2c(c1)ccc1ccccc12 ?
-11
